Biological target: UniProtKB Q14432
Sequence (Q14432 whole entry): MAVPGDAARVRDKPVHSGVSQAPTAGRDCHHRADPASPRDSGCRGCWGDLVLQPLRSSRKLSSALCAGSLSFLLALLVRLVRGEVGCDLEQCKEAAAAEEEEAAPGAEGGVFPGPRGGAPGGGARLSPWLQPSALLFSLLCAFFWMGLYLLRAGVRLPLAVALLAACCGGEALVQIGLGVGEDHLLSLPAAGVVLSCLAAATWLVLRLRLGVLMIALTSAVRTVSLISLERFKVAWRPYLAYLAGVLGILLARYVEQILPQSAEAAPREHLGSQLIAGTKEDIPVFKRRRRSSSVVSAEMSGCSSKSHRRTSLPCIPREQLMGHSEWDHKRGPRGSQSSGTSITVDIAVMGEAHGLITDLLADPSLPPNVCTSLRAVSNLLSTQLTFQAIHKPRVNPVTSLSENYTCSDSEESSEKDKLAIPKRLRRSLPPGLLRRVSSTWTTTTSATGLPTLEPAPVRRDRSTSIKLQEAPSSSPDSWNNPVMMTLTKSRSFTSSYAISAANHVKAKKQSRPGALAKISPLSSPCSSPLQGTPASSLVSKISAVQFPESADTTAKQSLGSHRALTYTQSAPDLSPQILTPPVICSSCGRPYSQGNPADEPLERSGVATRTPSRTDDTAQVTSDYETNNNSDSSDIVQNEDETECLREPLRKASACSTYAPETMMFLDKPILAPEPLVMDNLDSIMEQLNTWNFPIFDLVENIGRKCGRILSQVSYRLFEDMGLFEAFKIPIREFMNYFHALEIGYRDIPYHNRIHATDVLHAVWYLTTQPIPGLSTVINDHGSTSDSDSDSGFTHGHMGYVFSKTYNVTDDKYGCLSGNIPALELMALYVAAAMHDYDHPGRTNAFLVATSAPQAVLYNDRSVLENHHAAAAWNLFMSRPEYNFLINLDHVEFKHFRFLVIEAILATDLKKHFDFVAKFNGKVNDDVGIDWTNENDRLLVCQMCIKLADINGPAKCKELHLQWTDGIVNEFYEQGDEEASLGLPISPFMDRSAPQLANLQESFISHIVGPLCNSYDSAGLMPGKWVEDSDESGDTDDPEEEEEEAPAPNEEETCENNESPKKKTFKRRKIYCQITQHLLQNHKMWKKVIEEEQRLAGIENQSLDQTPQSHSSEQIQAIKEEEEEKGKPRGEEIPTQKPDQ
Assay: Inhibition of human recombinant PDE3A transfected in Sf9 cells by SPA
pKi: −log10 of the molar value.
Recorded measurements of pKi, one per entry
measurementType: pKi

{"chemicalStructure": "COc1cc2ncnc(N3CC[C@@H](Oc4ccc(C#N)cc4)C3)c2cc1OC", "targetSystem": "UniProtKB Q14432", "measurementType": "pKi", "readoutQualifier": "=", "valueMeasured": 6.67}
{"chemicalStructure": "COc1cc2ncnc(N3CC[C@@H](Oc4cccc(C(C)C)c4)C3)c2cc1OC", "targetSystem": "UniProtKB Q14432", "measurementType": "pKi", "readoutQualifier": "=", "valueMeasured": 6.43}
{"chemicalStructure": "COc1ccc(O[C@@H]2CCN(c3ncnc4cc(OC)c(OC)cc34)C2)cc1OC", "targetSystem": "UniProtKB Q14432", "measurementType": "pKi", "readoutQualifier": "=", "valueMeasured": 6.92}
{"chemicalStructure": "COc1cc2ncnc(N3CC[C@@H](Oc4ccccc4C#N)C3)c2cc1OC", "targetSystem": "UniProtKB Q14432", "measurementType": "pKi", "readoutQualifier": ">", "valueMeasured": 7.00}
{"chemicalStructure": "COc1cc2ncnc(N3CC[C@@H](Oc4ccc5cccnc5c4)C3)c2cc1OC", "targetSystem": "UniProtKB Q14432", "measurementType": "pKi", "readoutQualifier": "=", "valueMeasured": 6.68}
{"chemicalStructure": "COc1ccc2ccc(O[C@@H]3CCN(c4ncnc5cc(OC)c(OC)cc45)C3)cc2c1", "targetSystem": "UniProtKB Q14432", "measurementType": "pKi", "readoutQualifier": "=", "valueMeasured": 6.56}
{"chemicalStructure": "COc1cc2ncnc(N3CC[C@@H](Oc4ccccc4Cl)C3)c2cc1OC", "targetSystem": "UniProtKB Q14432", "measurementType": "pKi", "readoutQualifier": ">", "valueMeasured": 7.00}
{"chemicalStructure": "COc1cc2ncnc(N3CC[C@@H](Oc4ncc(Cl)cn4)C3)c2cc1OC", "targetSystem": "UniProtKB Q14432", "measurementType": "pKi", "readoutQualifier": "=", "valueMeasured": 6.79}
{"chemicalStructure": "COc1cc2ncnc(N3CC[C@H](Oc4ccccc4OC)C3)c2cc1OC", "targetSystem": "UniProtKB Q14432", "measurementType": "pKi", "readoutQualifier": "<", "valueMeasured": 7.00}
{"chemicalStructure": "COc1cc2ncnc(N3CC[C@@H](Oc4cccnc4)C3)c2cc1OC", "targetSystem": "UniProtKB Q14432", "measurementType": "pKi", "readoutQualifier": "=", "valueMeasured": 6.52}
